Where do the numbers come from? From ChEMBL document CHEMBL1821574.

tested on: Plasmodium falciparum; assay: Antimalarial activity against chloroquine-resistant and mefloquine-sensitive Plasmodium falciparum W2 assessed as inhibition of [3H]hypoxanthine incorporation by liquid scintillation spectrometry; format: functional
reported.metric: IC90

Answered examples (2):
Ask | Recall and state the measured IC90 for NCCCNCCNCC(O)c1cc(C(F)(F)F)nc2c(C(F)(F)F)cccc12 (stereo not drawn) .
Reply | > 0.5 µg/mL

Ask | Return the recorded IC90 value; entry: CN(C)CCNCC(O)c1cc(C(F)(F)F)nc2c(C(F)(F)F)cccc12 (stereo not drawn)
Reply | > 0.5 µg/mL

From here, focus on the item given below.
Ask | Fill in reported IC90 for this entry: CC1CC(C)CN(CCNCC(O)c2cc(C(F)(F)F)nc3c(C(F)(F)F)cccc23)C1 (stereo not drawn)
Reply | < 0.001 µg/mL
